Test system: Respiratory syncytial virus
Experiment: Antiviral activity against Respiratory syncytial virus
Format: functional, organism-based
Activity calls are given as the source filed them. The calls are words filed in the database; no cut-off is given here.
propertyMeasured: Activity

smilesEntry	propertyMeasured	observed
C=C(C)[C@@H]1CC[C@]2(C(=O)O)CC[C@]3(C)[C@H](CC[C@@H]4[C@@]5(C)Cc6nnn(CCCCCCC)c6C(C)(C)[C@@H]5CC[C@]43C)[C@@H]12	Activity	inactive
C=C(C)[C@@H]1CC[C@]2(C(=O)O)CC[C@]3(C)[C@H](CC[C@@H]4[C@@]5(C)Cc6nnn(Cc7ccc(C(F)(F)F)cc7)c6C(C)(C)[C@@H]5CC[C@]43C)[C@@H]12	Activity	inactive
C=C(C)[C@@H]1CC[C@]2(C(=O)O)CC[C@]3(C)[C@H](CC[C@@H]4[C@@]5(C)Cc6nnn(CCc7c[nH]c8ccc(OC)cc78)c6C(C)(C)[C@@H]5CC[C@]43C)[C@@H]12	Activity	inactive

---

Assay: Cytotoxicity against mock-infected human embryonic lung fibroblast cells incubated for 5 days by MTS assay
Assay type: cell-based
Details: time 5 day
propertyMeasured: CC50 at 120 h

smilesEntry	CC50 at 120 h
C=C(C)[C@@H]1CC[C@]2(C(=O)O)CC[C@]3(C)[C@H](CC[C@@H]4[C@@]5(C)Cc6nnn(Cc7ccc(C(F)(F)F)cc7)c6C(C)(C)[C@@H]5CC[C@]43C)[C@@H]12	≥ 47 µM
C=C(C)[C@@H]1CC[C@]2(C(=O)O)CC[C@]3(C)[C@H](CC[C@@H]4[C@@]5(C)CCC(=O)C(C)(C)[C@@H]5CC[C@]43C)[C@@H]12	> 100 µM

// returns reported CC50 at 120 h for input CC(C)[C@@H]1CC[C@]2(C(=O)O)CC[C@]3(C)[C@H](CC[C@@H]4[C@@]5(C)Cc6nnn([C@@H](C)c7ccccc7)c6C(C)(C)[C@@H]5CC[C@]43C)[C@@H]12
> 99 µM

---

Test system: Reovirus sp.
Experiment: Antiviral activity against Reovirus-1
Format: functional, organism-based
Active and inactive are the calls of the source. The calls are words filed in the database; no cut-off is given here.
propertyMeasured: Activity

Examples from the recorded data:
smilesEntry	observed
C=C(C)[C@@H]1CC[C@]2(C(=O)O)CC[C@]3(C)[C@H](CC[C@@H]4[C@@]5(C)Cc6nnn(Cc7ccncc7)c6C(C)(C)[C@@H]5CC[C@]43C)[C@@H]12	inactive
C=C(C)[C@@H]1CC[C@]2(C(=O)O)CC[C@]3(C)[C@H](CC[C@@H]4[C@@]5(C)Cc6nnn(Cc7cccc8[nH]ccc78)c6C(C)(C)[C@@H]5CC[C@]43C)[C@@H]12	inactive
C=C(C)[C@@H]1CC[C@]2(C(=O)O)CC[C@]3(C)[C@H](CC[C@@H]4[C@@]5(C)Cc6nnn(Cc7cc(OC)cc(OC)c7)c6C(C)(C)[C@@H]5CC[C@]43C)[C@@H]12	inactive
C=C(C)[C@@H]1CC[C@]2(C(=O)O)CC[C@]3(C)[C@H](CC[C@@H]4[C@@]5(C)Cc6nnn(Cc7ccc(C(F)(F)F)cc7)c6C(C)(C)[C@@H]5CC[C@]43C)[C@@H]12	inactive
CC(C)[C@@H]1CC[C@]2(C)CC[C@]3(C)[C@H](CC[C@@H]4[C@@]5(C)Cc6nnn([C@@H](C)c7ccccc7)c6C(C)(C)[C@@H]5CC[C@]43C)[C@@H]12	inactive

I'm curious: which Activity was measured for C=C(C)[C@@H]1CC[C@]2(C(=O)O)CC[C@]3(C)[C@H](CC[C@@H]4[C@@]5(C)Cc6nnn(Cc7cc(OC)c(OC)c(OC)c7)c6C(C)(C)[C@@H]5CC[C@]43C)[C@@H]12 tested on Reovirus sp.?
inactive

I'm curious: which Activity was measured for C=C(C)[C@@H]1CC[C@]2(C(=O)O)CC[C@]3(C)[C@H](CC[C@@H]4[C@@]5(C)Cc6nnn(Cc7ccc(C)cc7)c6C(C)(C)[C@@H]5CC[C@]43C)[C@@H]12 tested on Reovirus sp.?
inactive

I'm curious: which Activity was measured for C=C(C)[C@@H]1CC[C@]2(C(=O)O)CC[C@]3(C)[C@H](CC[C@@H]4[C@@]5(C)Cc6nnn(Cc7ccccc7)c6C(C)(C)[C@@H]5CC[C@]43C)[C@@H]12 tested on Reovirus sp.?
inactive
